system: 855422-203-R-J1-PDC complex spheroids, viability; assay: Anticancer human tumor 855422-203-R-J1-PDC patient-derived bladder carcinoma cell line growth inhibition [CLK]; details: curve of first compound; second compound 0.316 µM
pIC50: −log10 of the molar value.
Some compounds, each annotated with its measured pIC50.

Compound	Measurement target	Observed result
C=CC(=O)N1CCN(c2nc(=O)n(-c3c(C)ccnc3C(C)C)c3nc(-c4c(O)cccc4F)c(F)cc23)C(C)C1 (stereo not given) + CNC(=O)c1ccc(Nc2nc(OC3CCCC3)c3c(-c4ccc5nc(C)oc5c4)c[nH]c3n2)c(OC)c1	855422-203-R-J1-PDC complex spheroids, viability	> 7.50
C=CC(=O)Nc1cc(Nc2nccc(-c3cn(C)c4ccccc34)n2)c(OC)cc1N(C)CCN(C)C + CN1CCN(c2cc(C(=O)Nc3cc4cc(-c5cnn(C)c5)ccc4cn3)ccn2)CC1	855422-203-R-J1-PDC complex spheroids, viability	> 9.02
Cn1ncnc1[C@H]1c2n[nH]c(=O)c3cc(F)cc(c23)N[C@@H]1c1ccc(F)cc1 + CNC(=O)c1ccc(Nc2nc(OC3CCCC3)c3c(-c4ccc5nc(C)oc5c4)c[nH]c3n2)c(OC)c1	855422-203-R-J1-PDC complex spheroids, viability	> 9.50
COc1c(OCCCN2CCOCC2)ccc2c3n(c(=NC(=O)c4cnc(N)nc4)nc12)CCN3 + CN1CCN(c2cc(C(=O)Nc3cc4cc(-c5cnn(C)c5)ccc4cn3)ccn2)CC1	855422-203-R-J1-PDC complex spheroids, viability	> 8.50

Please look up its pIC50: CC1COCCN1c1cc(C2(S(C)(=N)=O)CC2)nc(-c2ccnc3[nH]ccc23)n1 (stereo not given) + CNC(=O)c1ccc(Nc2nc(OC3CCCC3)c3c(-c4ccc5nc(C)oc5c4)c[nH]c3n2)c(OC)c1
> 7.50

====

Some compounds, each annotated with its measured viability, T/C.
test system: 855422-203-R-J1-PDC complex spheroids, viability; assay: Anticancer human tumor 855422-203-R-J1-PDC cell line growth inhibition [CLK]; settings: second compound 0.316 µM; first compound 0.000949 µM; stronger effect = lower value;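 also: spheroids exposed to drugs for seven days before readout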;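 as to viability, T/C: 100% = DMSO vehicle control wells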

Here's what some known entries look like.
Compound	Recorded metric	Observed result
CC(C)CC(NC(=O)C(Cc1ccccc1)NC(=O)c1cnccn1)B(O)O (centres undefined) + CNC(=O)c1ccc(Nc2nc(OC3CCCC3)c3c(-c4ccc5nc(C)oc5c4)c[nH]c3n2)c(OC)c1	viability, T/C	2.47%
CC(C)CC(NC(=O)C(Cc1ccccc1)NC(=O)c1cnccn1)B(O)O (centres undefined) + CN1CCN(c2cc(C(=O)Nc3cc4cc(-c5cnn(C)c5)ccc4cn3)ccn2)CC1	viability, T/C	0.57%
C=CC(=O)Nc1cc(Nc2nccc(-c3cn(C)c4ccccc34)n2)c(OC)cc1N(C)CCN(C)C + CNC(=O)c1ccc(Nc2nc(OC3CCCC3)c3c(-c4ccc5nc(C)oc5c4)c[nH]c3n2)c(OC)c1	viability, T/C	21.3%

Please look up its viability, T/C: C=CC(=O)Nc1cc(Nc2nccc(-c3cn(C)c4ccccc34)n2)c(OC)cc1N(C)CCN(C)C + CN1CCN(c2cc(C(=O)Nc3cc4cc(-c5cnn(C)c5)ccc4cn3)ccn2)CC1
7.04%

====

test system: 855422-203-R-J1-PDC complex spheroids, viability; assay: Anticancer human tumor 855422-203-R-J1-PDC cell line growth inhibition [CLK]; details: second compound 0.1 µM; first compound 3.16 µM; stronger effect = lower value;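 also: spheroids exposed to drugs for seven days before readout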;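 as to viability, T/C: 100% = DMSO vehicle control wells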
Recorded metric: viability, T/C

Here's what some known entries look like.
Compound	Recorded metric	Observed result
Nc1ccccc1NC(=O)c1ccc(CNC(=O)OCc2cccnc2)cc1 + CNC(=O)c1ccc(Nc2nc(OC3CCCC3)c3c(-c4ccc5nc(C)oc5c4)c[nH]c3n2)c(OC)c1	viability, T/C	21.1%
O=c1[nH]cc(F)c(=O)[nH]1 + CNC(=O)c1ccc(Nc2nc(OC3CCCC3)c3c(-c4ccc5nc(C)oc5c4)c[nH]c3n2)c(OC)c1	viability, T/C	40.8%

Please tell me: viability, T/C of O=c1[nH]cc(F)c(=O)[nH]1 + CN1CCN(c2cc(C(=O)Nc3cc4cc(-c5cnn(C)c5)ccc4cn3)ccn2)CC1 , system 855422-203-R-J1-PDC complex spheroids, viability?
52.4%

Please do the same for CC(=O)O[C@H]1C(=O)[C@@]2(C)[C@H]([C@H](OC(=O)c3ccccc3)[C@]3(O)C[C@H](OC(=O)[C@H](O)[C@@H](NC(=O)c4ccccc4)c4ccccc4)C(C)=C1C3(C)C)[C@]1(OC(C)=O)CO[C@@H]1C[C@@H]2O + CNC(=O)c1ccc(Nc2nc(OC3CCCC3)c3c(-c4ccc5nc(C)oc5c4)c[nH]c3n2)c(OC)c1 as well.
15%

Please do the same for C#Cc1c(F)ccc2cc(O)cc(-c3ncc4c(N5CC6CCC(C5)N6)nc(OCC56CCCN5CC(F)C6)nc4c3F)c12 (stereo not given) + CNC(=O)c1ccc(Nc2nc(OC3CCCC3)c3c(-c4ccc5nc(C)oc5c4)c[nH]c3n2)c(OC)c1 as well.
32.7%

====

system: 855422-203-R-J1-PDC complex spheroids, viability; experiment: Anticancer human tumor 855422-203-R-J1-PDC cell line growth inhibition [CLK]; conditions: second compound 0.316 µM; first compound 0.3 µM; active means viability on the fitted dose curve at most 10% of control; inactive means the rest;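 also: spheroids exposed to drugs for seven days before readout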
Assign a class; possible classes are active, inactive

As a guide, the following entries are already answered.
Compound	Measurement target	Label value
CC(C)CC(NC(=O)C(Cc1ccccc1)NC(=O)c1cnccn1)B(O)O (stereo unspecified) + CNC(=O)c1ccc(Nc2nc(OC3CCCC3)c3c(-c4ccc5nc(C)oc5c4)c[nH]c3n2)c(OC)c1	855422-203-R-J1-PDC complex spheroids, viability	active
NC(=O)C(=Cn1cnc(-c2cc(C(F)(F)F)cc(C(F)(F)F)c2)n1)c1cncnc1 + CNC(=O)c1ccc(Nc2nc(OC3CCCC3)c3c(-c4ccc5nc(C)oc5c4)c[nH]c3n2)c(OC)c1	855422-203-R-J1-PDC complex spheroids, viability	active
NC(=O)C(=Cn1cnc(-c2cc(C(F)(F)F)cc(C(F)(F)F)c2)n1)c1cncnc1 + CN1CCN(c2cc(C(=O)Nc3cc4cc(-c5cnn(C)c5)ccc4cn3)ccn2)CC1	855422-203-R-J1-PDC complex spheroids, viability	active
C=CC(=O)Nc1cc(Nc2nccc(-c3cn(C)c4ccccc34)n2)c(OC)cc1N(C)CCN(C)C + CNC(=O)c1ccc(Nc2nc(OC3CCCC3)c3c(-c4ccc5nc(C)oc5c4)c[nH]c3n2)c(OC)c1	855422-203-R-J1-PDC complex spheroids, viability	inactive
CC(C)CC(NC(=O)C(Cc1ccccc1)NC(=O)c1cnccn1)B(O)O (stereo unspecified) + CN1CCN(c2cc(C(=O)Nc3cc4cc(-c5cnn(C)c5)ccc4cn3)ccn2)CC1	855422-203-R-J1-PDC complex spheroids, viability	active

Please look at the following compound next.
What classification did C=CC(=O)Nc1cc(Nc2nccc(-c3cn(C)c4ccccc34)n2)c(OC)cc1N(C)CCN(C)C + CN1CCN(c2cc(C(=O)Nc3cc4cc(-c5cnn(C)c5)ccc4cn3)ccn2)CC1 end up with in this test?
active

====

tested on: 855422-203-R-J1-PDC complex spheroids, viability; test: Anticancer human tumor 855422-203-R-J1-PDC cell line growth inhibition [CLK]; conditions: curve of first compound; second compound 0.316 µM;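 also: spheroids exposed to drugs for seven days before readout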
pIC50: −log10 of the molar value.
Recorded metric: pIC50

Please look up its pIC50: C=CC(=O)N1CCN(c2nc(=O)n(-c3c(C)ccnc3C(C)C)c3nc(-c4c(O)cccc4F)c(F)cc23)C(C)C1 (stereo not drawn) + CN1CCN(c2cc(C(=O)Nc3cc4cc(-c5cnn(C)c5)ccc4cn3)ccn2)CC1
> 7.50

Please do the same for CC(=O)O[C@H]1C(=O)[C@@]2(C)[C@H]([C@H](OC(=O)c3ccccc3)[C@]3(O)C[C@H](OC(=O)[C@H](O)[C@@H](NC(=O)c4ccccc4)c4ccccc4)C(C)=C1C3(C)C)[C@]1(OC(C)=O)CO[C@@H]1C[C@@H]2O + CNC(=O)c1ccc(Nc2nc(OC3CCCC3)c3c(-c4ccc5nc(C)oc5c4)c[nH]c3n2)c(OC)c1 as well.
> 7.50

Please do the same for COc1c(OCCCN2CCOCC2)ccc2c3n(c(=NC(=O)c4cnc(N)nc4)nc12)CCN3 + CNC(=O)c1ccc(Nc2nc(OC3CCCC3)c3c(-c4ccc5nc(C)oc5c4)c[nH]c3n2)c(OC)c1 as well.
> 8.50

====

system: 855422-203-R-J1-PDC complex spheroids, viability; test: Anticancer human tumor 855422-203-R-J1-PDC cell line growth inhibition [CLK]; settings: second compound 3.16 µM; first compound 0.0316 µM; stronger effect = lower value;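 also: spheroids exposed to drugs for seven days before readout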;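 as to viability, T/C: 100% = DMSO vehicle control wells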
Recorded metric: viability, T/C

Compound	Observed result
CC1(C)CCC(CN2CCN(c3ccc(C(=O)NS(=O)(=O)c4ccc(NCC5CCOCC5)c([N+](=O)[O-])c4)c(Oc4cnc5[nH]ccc5c4)c3)CC2)=C(c2ccc(Cl)cc2)C1 + CN1CCN(c2cc(C(=O)Nc3cc4cc(-c5cnn(C)c5)ccc4cn3)ccn2)CC1	0.63%
CC(=O)O[C@H]1C(=O)[C@@]2(C)[C@H]([C@H](OC(=O)c3ccccc3)[C@]3(O)C[C@H](OC(=O)[C@H](O)[C@@H](NC(=O)c4ccccc4)c4ccccc4)C(C)=C1C3(C)C)[C@]1(OC(C)=O)CO[C@@H]1C[C@@H]2O + CNC(=O)c1ccc(Nc2nc(OC3CCCC3)c3c(-c4ccc5nc(C)oc5c4)c[nH]c3n2)c(OC)c1	28.6%
C#Cc1c(F)ccc2cc(O)cc(-c3ncc4c(N5CC6CCC(C5)N6)nc(OCC56CCCN5CC(F)C6)nc4c3F)c12 (centres undefined) + CNC(=O)c1ccc(Nc2nc(OC3CCCC3)c3c(-c4ccc5nc(C)oc5c4)c[nH]c3n2)c(OC)c1	20.6%

Shift focus to the following entry.
Please look up its viability, T/C: Nc1ccn(C2OC(CO)C(O)C2(F)F)c(=O)n1 (centres undefined) + CNC(=O)c1ccc(Nc2nc(OC3CCCC3)c3c(-c4ccc5nc(C)oc5c4)c[nH]c3n2)c(OC)c1
19.4%
